All values here come from patent US20030105278A1.

- Target System: human MCH receptor expressed from the open reading frame cDNA SEQ. ID. NO. 1 in 293-AEQ17 cells (human, UniProt Q99705 1-353)
- Sequence (Q99705 whole entry): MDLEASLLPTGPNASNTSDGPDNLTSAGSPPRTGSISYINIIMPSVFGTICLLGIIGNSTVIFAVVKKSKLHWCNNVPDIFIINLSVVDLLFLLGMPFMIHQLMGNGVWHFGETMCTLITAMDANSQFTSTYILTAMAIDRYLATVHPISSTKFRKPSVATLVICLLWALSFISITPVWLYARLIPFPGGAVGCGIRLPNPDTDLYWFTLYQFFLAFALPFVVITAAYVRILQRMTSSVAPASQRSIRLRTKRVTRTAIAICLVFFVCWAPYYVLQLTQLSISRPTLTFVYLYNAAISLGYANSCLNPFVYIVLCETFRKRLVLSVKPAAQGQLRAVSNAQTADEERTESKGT
- Assay Protocol: cell-based or functional assay
Bridges are numbered along the chain shown (N, C = ends). [ ]: non-standard residue; d: D form. Ava = NCCCCC(=O)O
Listing: Activation % of selected binders
Provide only the numeric value, understood in %.

RCMLXRVYXXC (not fully specified; D-Pro^10; Ava (5-aminopentanoic acid) in place of positions 14,15; N-terminal acetyl, C-terminal amide, Cys-Cys disulfide as in SEQ. ID. NO. 7, ID; NO; 7 peptide; MCH position numbering) [MCH analog SEQ. ID. NO. 74 (D-Pro^10,Ava^14,15)]    3

[ask] Give its Activation % value. Item: Ac-[dR]CM[Ava][Ava]RVYRPC-NH2 (disulfide 2-11; not fully specified, ID; NO; 7 peptide; MCH position numbering) [MCH analog SEQ. ID. NO. 71 (D-Arg^6,Ava^9,10)]
[reply] 72

[ask] Give its Activation % value. Item: Ac-RCM[Ava][Ava]RVYRPC-NH2 (disulfide 2-11; not fully specified, ID; NO; 7 peptide; MCH position numbering) [MCH analog SEQ. ID. NO. 70 (Ava^9,10)]
[reply] 82
